Target: EGFR(D770_N771insSVD) expressing Ba/F3 stable cell line (Homo sapiens, UniProt P00533, DUP768-770, cells depend on it)
Sequence (P00533 with tags, fused parts or gaps DUP768-770): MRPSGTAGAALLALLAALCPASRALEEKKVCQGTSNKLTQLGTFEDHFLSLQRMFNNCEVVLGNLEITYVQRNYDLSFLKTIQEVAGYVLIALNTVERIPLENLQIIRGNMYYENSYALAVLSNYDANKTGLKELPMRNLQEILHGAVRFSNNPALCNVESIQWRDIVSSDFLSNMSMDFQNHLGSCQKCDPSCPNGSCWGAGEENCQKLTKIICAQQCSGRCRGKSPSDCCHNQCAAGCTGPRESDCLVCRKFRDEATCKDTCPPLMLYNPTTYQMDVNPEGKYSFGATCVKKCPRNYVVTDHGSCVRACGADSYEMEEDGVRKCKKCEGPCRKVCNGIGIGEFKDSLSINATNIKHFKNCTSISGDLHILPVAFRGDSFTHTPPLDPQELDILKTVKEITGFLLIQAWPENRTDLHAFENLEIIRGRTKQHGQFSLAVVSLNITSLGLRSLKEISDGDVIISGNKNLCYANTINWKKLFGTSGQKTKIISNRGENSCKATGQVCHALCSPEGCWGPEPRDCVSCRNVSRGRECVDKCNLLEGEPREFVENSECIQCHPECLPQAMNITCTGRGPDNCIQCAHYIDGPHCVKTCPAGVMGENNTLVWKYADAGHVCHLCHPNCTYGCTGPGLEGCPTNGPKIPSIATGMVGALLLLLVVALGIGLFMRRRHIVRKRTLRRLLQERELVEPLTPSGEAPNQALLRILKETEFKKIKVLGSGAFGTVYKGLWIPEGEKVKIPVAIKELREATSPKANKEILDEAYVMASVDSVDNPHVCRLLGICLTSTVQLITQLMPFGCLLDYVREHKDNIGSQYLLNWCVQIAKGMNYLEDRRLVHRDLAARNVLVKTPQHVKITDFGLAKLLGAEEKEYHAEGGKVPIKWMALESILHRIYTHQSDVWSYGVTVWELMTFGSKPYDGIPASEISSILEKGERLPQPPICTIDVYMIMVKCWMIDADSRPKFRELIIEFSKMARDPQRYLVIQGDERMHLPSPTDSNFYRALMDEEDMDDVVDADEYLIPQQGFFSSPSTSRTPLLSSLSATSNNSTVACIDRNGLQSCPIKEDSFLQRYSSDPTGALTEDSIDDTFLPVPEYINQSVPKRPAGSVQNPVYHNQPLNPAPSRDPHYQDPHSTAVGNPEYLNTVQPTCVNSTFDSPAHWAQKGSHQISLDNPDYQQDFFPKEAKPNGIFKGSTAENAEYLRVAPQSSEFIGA
Assay: Cellular proliferation (Alamar Blue) assay, EGFR(D770_N771insSVD) Ba/F3
Format: cell-based
Details: 72 hr, read-out: D770 IC50
quantity measured: GI50 (µM)

Below, each entry is followed by its recorded GI50 result.
In [3]: df
Out[3]:
                               given_smiles  quantity_measured  recorded_value
0  C=CC(=O)Nc1ccc(F)c(Nc2nc(Nc3cn(C)nc3Cl)ncc2-c2cc(F)cc(OC)c2)c1               GI50           0.285
1  C=CC(=O)Nc1ccc(F)c(Nc2nc(Nc3cnn(C)c3)ncc2-c2ccc(C(F)(F)F)c(Cl)c2)c1               GI50           0.085
2  C=CC(=O)Nc1ccc(F)c(Nc2nc(Nc3cnn(C)c3)ncc2-c2ccc(N(C)C)c(F)c2)c1               GI50           0.029

[I] C=CC(=O)Nc1cccc(Nc2nc(Nc3cnn(C)c3)ncc2-c2cc(F)c(F)c(F)c2)c1
[II] C=CC(=O)Nc1ccc(F)c(Nc2nc(Nc3cnn(C)c3)ncc2-c2c(F)cccc2OC)c1
[III] C=CC(=O)Nc1ccc(F)c(Nc2nc(Nc3cnn(CCN(C)C)c3)ncc2-c2ccc(N3CCCCC3)c(F)c2)c1
[IV] CN(C)C/C=C/C(=O)Nc1ccc(F)c(Nc2nc(Nc3cnn(C)c3)ncc2-c2ccc(Br)c(F)c2)c1
Query: List by increasing GI50. Your task in answering is to list the labels in the requested order.
Response: I, IV, III, II

[I] C=CC(=O)Nc1ccc(F)c(Nc2nc(Nc3cnn(CCOC)c3)ncc2-c2ccc(F)c(Cl)c2)c1
[II] C=CC(=O)Nc1ccc(F)c(Nc2nc(Nc3cnn(C)c3)ncc2-c2ccc(C3=CCN(C)CC3)c(F)c2)c1
[III] C=CC(=O)Nc1ccc(F)c(Nc2nc(Nc3cnn(C)c3)ncc2-c2ccc(Cl)c(Cl)c2)c1
[IV] C=CC(=O)Nc1ccc(F)c(Nc2nc(Nc3cnn(C)c3)ncc2-c2ccc(N3CCCCC3)c(F)c2)c1
[V] C=CC(=O)Nc1cccc(Nc2nc(Nc3cnn(C)c3)ncc2-c2ccc(OC(F)F)c(F)c2)c1
Query: List by increasing GI50. Your task in answering is to list the labels in the requested order.
Response: V, III, IV, I, II

[A] Cn1cc(Nc2ncc(-c3ccc(Br)c(F)c3)c(Nc3cc(NC(=O)/C=C/CF)ccc3F)n2)cn1
[B] C=CC(=O)Nc1ccc(F)c(Nc2nc(Nc3cnn(C)c3)ncc2-c2cc(F)c(F)c(F)c2)c1
[C] C=CC(=O)Nc1cccc(Nc2nc(Nc3cnn(C)c3)ncc2-c2ccc(Br)c(F)c2)c1
Query: List by increasing GI50. Your task in answering is to list the labels in the requested order.
Response: B, C, A
(B: 0.011 µM, C: 0.032 µM, A: 0.136 µM)
